This collection of values is drawn from patent US20100273710.

- assay.system: NOP receptor (Homo sapiens, UniProt P41146)
- Sequence (P41146 whole entry): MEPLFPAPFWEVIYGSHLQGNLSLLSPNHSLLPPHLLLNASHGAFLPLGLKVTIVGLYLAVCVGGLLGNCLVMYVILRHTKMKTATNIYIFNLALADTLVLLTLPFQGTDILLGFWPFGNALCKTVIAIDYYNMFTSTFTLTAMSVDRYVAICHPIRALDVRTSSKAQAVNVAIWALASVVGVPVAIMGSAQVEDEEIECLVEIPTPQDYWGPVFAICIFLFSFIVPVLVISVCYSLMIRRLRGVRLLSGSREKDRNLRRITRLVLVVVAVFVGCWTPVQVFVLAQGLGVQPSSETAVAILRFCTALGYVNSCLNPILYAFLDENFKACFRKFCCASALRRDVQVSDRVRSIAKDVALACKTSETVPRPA
- assay.method.text: competition, [3H]N/OFQ
test.readout: Ki (nM)

- XGGFTGXRKSARKRKNQ ([Nphe1,Aib7,Arg14,Lys15]N/OFQ-NH2; X1 = Nphe, X7 = Aib, C-terminal amide) [UFP-111]: 0.178
